# System: human leukocytes (basophils)
# ASSAY_COMMENT: Inhibition of IgE-mediated histamine release from human leukocytes (basophils), Procedure A
# Format: cell-based
# CONDITIONS: Leukocyte, 1 h; from human basophils; rabbit anti-human IgE as antigen; 60 min at 37° C.; > = no response detected at highest dose indicated; read-out: In Vitro Inhibition of Histamine Release IC50 (μM) Procedure A
Where a name gives a salt, the structure may show the parent alone.
Could you please mark MET for values of IC50 below 9 µM and NOT MET for values at or above it?

Worked cases, answers included:
O=C(Nc1ccccc1)SCCCN1CCN(Cc2ccccc2)CC1 [Example 2, dihydrochloride monohydrate] ... NOT MET
O=C(Nc1ccccc1)SCCCN1CCN(c2ccc(F)cc2)CC1 [Example 35, dihydrochloride] ... NOT MET
COc1ccc(NC(=O)SCCCN2CCN(CCCc3ccc(Cl)cc3)CC2)cc1 [Example 39, dihydrochloride hemihydrate] ... NOT MET

Now, please, on to the next molecule.
Given SCCCN1CCN(CCc2ccc(Cl)cc2)CC1 [Example 25, dihydrochloride] , is recorded IC50 strictly lower than 9 µM?
MET

====

Some compounds, each annotated with its measured IC50.
# System: rat peritoneal mast cells
# ASSAY_COMMENT: Inhibition of histamine release from rat peritoneal mast cells, Procedure B
# Type: cell-based
# CONDITIONS: Mast cell, 1 h; from rat peritoneal mast cells; sheep anti-rat IgE or ovalbumin; 60 min at 37° C.; read-out: In Vitro Inhibition of Histamine Release IC50 (μM) Procedure B
Counter-ions that a name gives are not always drawn.
Quick note: give the figure in µM, leave out the unit.

Look over these answered cases.
O=C(NC1CCCCC1)SCCCN1CCN(Cc2ccc(Cl)cc2)CC1 [Example 6, dihydrochloride] ... 3
CCCCc1ccc(NC(=O)SCCCN2CCN(CCCc3ccc(Cl)cc3)CC2)cc1 [Example 33, dihydrochloride] ... 2
COc1ccc(NC(=O)SCCCN2CCN(CCc3ccc(Cl)cc3)CC2)cc1 [Example 28, dihydrochloride] ... 7
O=C(Nc1ccccc1)SCCCN1CCN(Cc2ccc(Cl)cc2)CC1 [Example 7, dihydrochloride] ... 3

IC50 lookup needed for SCCCN1CCN(CCc2ccc(Cl)cc2)CC1 [Example 25, dihydrochloride] , thanks.
4

====

# Test system: human leukocytes (basophils)
# ASSAY_COMMENT: Inhibition of IgE-mediated histamine release from human leukocytes (basophils), Procedure A
# Type: cell-based
# CONDITIONS: Leukocyte, 1 h; from human basophils; rabbit anti-human IgE as antigen; 60 min at 37° C.; > = no response detected at highest dose indicated; read-out: In Vitro Inhibition of Histamine Release IC50 (μM) Procedure A
Structures can show the parent of a compound that is named as a salt.
In this section we review reported IC50 values for a set of compounds.
Answer in µM, number only, no unit symbol.

CC(C)(C)NC(=O)SCCCN1CCN(Cc2ccc(Cl)cc2)CC1 [Example 47, dihydrochloride sesquihydrate] ... 58

Consider the record given below.
Look at this compound and give its reported IC50. CCCCc1ccc(NC(=O)SCCCN2CCN(CCCc3ccc(Cl)cc3)CC2)cc1 [Example 33, dihydrochloride]
5

====

Recorded IC50 for the following compounds
# Test system: human leukocytes (basophils)
# ASSAY_COMMENT: Inhibition of IgE-mediated histamine release from human leukocytes (basophils), Procedure A
# Type: cell-based
# CONDITIONS: Leukocyte, 1 h; from human basophils; rabbit anti-human IgE as antigen; 60 min at 37° C.; > = no response detected at highest dose indicated; read-out: In Vitro Inhibition of Histamine Release IC50 (μM) Procedure A
Where a name gives a salt, the structure may show the parent alone.
Give just the number in µM; leave the unit off.

Illustrative cases are given below, each with its answer.
O=C(Nc1ccccc1)SCCCN1CCN(Cc2ccc(Cl)cc2)CC1 [Example 7, dihydrochloride] ... 2.6
CCCCc1ccc(NC(=O)SCCCN2CCN(Cc3ccc(Cl)cc3)CC2)cc1 [Example 8, dihydrochloride] ... 760
CCCCCCNC(=O)SCCCN1CCCN(Cc2ccc(Cl)cc2)CC1 [Example 46] ... 12
O=C(Nc1ccccc1)SCCCN1CCN(CCc2ccc(Cl)cc2)CC1 [Example 26, dihydrochloride monohydrate] ... 25
CC(c1ccccc1)N1CCN(CCCSC(=O)Nc2ccccc2)CC1 (centres unmarked) [Example 22, dihydrochloride dihydrate] ... 67
COc1ccc(NC(=O)SCCCN2CCN(CCc3ccc(Cl)cc3)CC2)cc1 [Example 28, dihydrochloride] ... 5

Given the compound COc1cccc(NC(=O)SCCCN2CCN(Cc3ccc(Cl)cc3)CC2)c1 [Example 13, dihydrochloride] , what is its reported IC50?
140

====

# System: human leukocytes (basophils)
# ASSAY_COMMENT: Inhibition of IgE-mediated histamine release from human leukocytes (basophils), Procedure A
# Format: cell-based
# CONDITIONS: Leukocyte, 1 h; from human basophils; rabbit anti-human IgE as antigen; 60 min at 37° C.; > = no response detected at highest dose indicated; read-out: In Vitro Inhibition of Histamine Release IC50 (μM) Procedure A
Structures can show the parent of a compound that is named as a salt.
PROPERTY_MEASURED: IC50 (µM)
Use µM as the unit, but write only the number.

O=C(Nc1ccc(Cl)cc1)SCCCN1CCN(Cc2ccc(Cl)cc2)CC1 [Example 10, dihydrochloride monohydrate] ... 47

Field request: IC50 | item: O=C(Nc1ccc(F)cc1)SCCCN1CCN(Cc2ccc(Cl)cc2)CC1 [Example 9, dihydrochloride]
11

COc1cc(NC(=O)SCCCN2CCN(CCc3ccc(Cl)cc3)CC2)cc(OC)c1OC [Example 29, dihydrochloride] ?
9

Proceed to SCCCN1CCCN(Cc2ccc(Cl)cc2)CC1 [Example 45]
3
